B1: glmS ribozyme (parent)
chain: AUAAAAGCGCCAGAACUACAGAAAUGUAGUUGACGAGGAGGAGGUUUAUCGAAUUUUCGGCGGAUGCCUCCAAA

variants of: B1; experiment: self-cleavage kobs at 10000 uM GlcN6P; higher = faster cleavage; RNA array; conditions: with glucosamine-6-phosphate
Fewer inactive variants are shown than the library holds.
In this section we review reported self-cleavage kobs at 10000 uM GlcN6P values for a set of variants.

Known self-cleavage kobs at 10000 uM GlcN6P results, listed for orientation:
[
  {
    "Sequence content": "AUAAAAGCGCCAGAACUACAGAAAUGUAGUUGACAAGGAGGAGGUUUAUCGAAUUUUCGGCGGAUGCCUCUAAA [G35A C71U]",
    "self-cleavage kobs at 10000 uM GlcN6P": "< 1e-05 s⁻¹"
  },
  {
    "Sequence content": "AUAAAAGCGCCAGAACUACAGAAAUGUAGUUCACGAGGAGGAGGUUUAACGAAUUUUCGGCGGAUGCCUCCAAA [G32C U49A]",
    "self-cleavage kobs at 10000 uM GlcN6P": "< 1e-05 s⁻¹"
  },
  {
    "Sequence content": "AUAAAAGUGCCAGAACUACAGAAAUGUAGUUGACGAGGAGUAGGUUUUUCGAAUUUUCGGCGGAUGCCUCGAAA [C8U G41U A48U C71G]",
    "self-cleavage kobs at 10000 uM GlcN6P": "< 1e-05 s⁻¹"
  },
  {
    "Sequence content": "AUAAAAGAGCCAGAACUACAGAAAUGUAGUUGACGGGGAGGAGGUUUAUCGAAUUUUCGGCGGAUGCCUCCAAA [C8A A36G]",
    "self-cleavage kobs at 10000 uM GlcN6P": "< 1e-05 s⁻¹"
  },
  {
    "Sequence content": "AUAAAGGCGCCAGAACUACAGAAAUGUAGUUGACGAGGAUGAGGUUUCUCGAAUUUUCGGCAGAGGCCUCCAAA [A6G G40U A48C G62A U65G]",
    "self-cleavage kobs at 10000 uM GlcN6P": "< 1e-05 s⁻¹"
  },
  {
    "Sequence content": "AUAAAAGCGCUAGAACUACAGAAAUGUAGUUGACGAGCAGGAGGUUUAUAGAGUUUUCGCCGGAUGCUUCCAAA [C11U G38C C50A A53G G60C C68U]",
    "self-cleavage kobs at 10000 uM GlcN6P": "< 1e-05 s⁻¹"
  },
  {
    "Sequence content": "AUAAAAGCGCCAGACCUACAGAAAUGUAGUUGACGUGGGGGAGGUUUAUCGAAUUUUCGGCGGAUGCCUCCAAA [A15C A36U A39G]",
    "self-cleavage kobs at 10000 uM GlcN6P": "< 1e-05 s⁻¹"
  },
  {
    "Sequence content": "AUAAAAGCGCCACAACUACAGAAAUGUAGUUGACGAGGAGGAUGUUUAUCGAAUUUUGGGCGGAUGCCUCCAAA [G13C G43U C58G]",
    "self-cleavage kobs at 10000 uM GlcN6P": "< 1e-05 s⁻¹"
  },
  {
    "Sequence content": "AUAAAUGCGCCAGAACUACAGAAAUGUAGUUGACGAGGAGGAGGUUUGUCGAAUUUUCGGCGGAUGCCUCCAAA [A6U A48G]",
    "self-cleavage kobs at 10000 uM GlcN6P": "< 1e-05 s⁻¹"
  },
  {
    "Sequence content": "AUAAAAGCGCCAGAACUACAGAAAUGUAGGUCACGAGGGGGAGGCUUAUCGUAUUUUCGGCGAAUGCCUCCAAA [U30G G32C A39G U45C A52U G63A]",
    "self-cleavage kobs at 10000 uM GlcN6P": "< 1e-05 s⁻¹"
  }
]

Kindly indicate its recorded self-cleavage kobs at 10000 uM GlcN6P. Item: AUAAAAGCGCCAGAACUACAGAAAUGUAGUUGACGAGGAGGAGGUUUAUAGAAUUUUCGGCCGAUGCCUCCAAA [C50A G62C]
< 1e-05 s⁻¹

Please report self-cleavage kobs at 10000 uM GlcN6P for the following variant: AUAAAAGAGCCAGAACUACAGAAAUGUAGUUGACGAGGAGUAGGUGUAUCGAAUUUUCGGCGAAUGCCUCCAAA [C8A G41U U46G G63A]
< 1e-05 s⁻¹

Annotate the variant AUAAAAGCGCCAGAACUACAGAAAUGUAGUUGACGAGGAGGAGGUUUGCCGAAUUUUCGGCGGAUGCCUCCAAA [A48G U49C] with its measured self-cleavage kobs at 10000 uM GlcN6P.
< 1e-05 s⁻¹

Please give the documented self-cleavage kobs at 10000 uM GlcN6P of AUAAAACCGCCAGAACUACAGAAAUGUAGUUGACGAGCAGGAGGUUUAUCGAAUUUUCGGCGGAUGCCUCCAAA [G7C G38C]
< 1e-05 s⁻¹

Look up and state reported self-cleavage kobs at 10000 uM GlcN6P for AUAAAAGCGCCAGAACUACAGAAAUGUAGUUGACGAGGAGAAGAUUUAUCGAAUUUUCGGCGGAUGCCUCCAAA [G41A G44A]
< 1e-05 s⁻¹

Assign self-cleavage kobs at 10000 uM GlcN6P to the following record: AUAAAAGCGCCAGAACUACAGAAAUGUAGUUGACGAGGAGGAGGUUUCUCGAAUUUUCGGCUGAUGUCUCGAAA [A48C G62U C67U C71G]
< 1e-05 s⁻¹

Tell me self-cleavage kobs at 10000 uM GlcN6P reported for AUAAAAGCGCCAGAACUACAGAAAUGUAGUUGACGAGGAGGAGGUUUUUCGAAUUUUCAGCGGAUUCCUCCAAA [A48U G59A G66U]
< 1e-05 s⁻¹

Could you please provide reported self-cleavage kobs at 10000 uM GlcN6P for AUAAAAGCGCCAGAACUACAGAAAUGUAGUUGACAAGGAGGAGGUGUAUCGAAUUUUCGGGGGAUGCCUCCAAA [G35A U46G C61G] ? Thanks!
< 1e-05 s⁻¹

Return value of self-cleavage kobs at 10000 uM GlcN6P for input AUAAAAGAGCCAGAACUACAGAAAUGUAAUUGACGAGGAGGAGGUUUAUCUAAUUUUCGGCGGAUGCCUCCAAA [C8A G29A G51U] , no commentary.
< 1e-05 s⁻¹
